assay: Quantitative High-Throughput drug screen in 47 multiple myeloma cell lines against the NCATS MIPE library collection: OPM2_DSMZ cell viability assay (AID 1919872); conditions: OPM2 myeloma viability, CellTiter-Glo ATP luminescence, 48 h; series mostly up to 45.8 µM; further: nearly all actives have a fitted effect of over 30% in size
Inconclusive results are not listed. Activity calls are given as the source filed them. The call rests on the fitted dose curve; in most records, active means well fitted cell-killing curve with a large enough effect; inconclusive means small, poorly fitted or top-dose-only effect, or effect the other way; inactive means no such curve, though single readings can be large or run the other way.
// classify into YES (active), NO (inactive)

1. OCCn1cc(-c2ccc3c(c2)CCC3=NO)c(-c2ccncc2)n1 | NO
2. N#Cc1ccc(Oc2ccc3c(c2)COB3O)cc1 | NO
3. CN(C)CCOc1ccc(-c2nc(-c3ccc4c(c3)CCC4=NO)c(-c3ccncc3)[nH]2)cc1 | YES
4. O=S(=O)(O)c1ccc2cc(N=Nc3cc(S(=O)(=O)O)c4cccnc4c3O)ccc2c1 | NO

Q. # outcome recorded in this test, key = OC(c1cc(C(F)(F)F)nc2c(C(F)(F)F)cccc12)C1CCCCN1 (stereo not given)
A. YES

###

Catalogue of cell viability, % of control (lower = more cytotoxic) values
test: High-throughput drug toxicity screening in the BPDCN cell line Gen2.2 (AID 1224824); conditions: Gen2.2 BPDCN cells; at 45.8 µM (top of the series) unless noted;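 further: cells exposed to compounds for 48 h before reading; 100% = DMSO and 0% = bortezomib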
# number only, unit % dropped from output

1. CN1CCC(COc2cnc(-c3cccc(Cn4nc(-c5cccc(C#N)c5)ccc4=O)c3)nc2)CC1 | 92.7
2. Cc1c(-c2cccc3c(CCCOc4cccc5ccccc45)c(C(=O)O)n(Cc4cccnc4)c23)c(COc2ccc(N3CCN([S+](=O)([O-])N(C)C)CC3)cc2)nn1C | 121

Next molecule, cell viability, % of control (lower = more cytotoxic) to be filled in.
Q. Need cell viability, % of control (lower = more cytotoxic), item CCN1CCC(n2cc(CNc3cc(Cl)c4ncc(C#N)c(Nc5ccc(F)c(Cl)c5)c4c3)nn2)CC1
A. 35.5

###

test system: MKL-2; test: qHTS assay to identify novel small-molecules to repurpose for Merkel cell carcinoma treatment (AID 1296009); settings: MCC and control cell lines, CellTiter-Glo viability, 72 h; series mostly up to 46 µM; further: nearly all actives have a fitted effect of over 60% in size
Inconclusive results are not listed. Active and inactive are the calls of the source. Calls come from the whole dose curve; as a rule, active = well fitted inhibition curve with a large enough effect; inconclusive = small, poorly fitted or top-dose-only effect; inactive = flat fitted curve, though single readings scatter.
// classify into active, inactive

As a guide, the following entries are already answered.
1) C[C@@H](O[C@H]1OCCN(Cc2n[nH]c(=O)[nH]2)[C@@H]1c1ccc(F)cc1)c1cc(C(F)(F)F)cc(C(F)(F)F)c1 | inactive
2) CCCCC[C@H](O)C=C[C@H]1[C@H](O)CC(=O)[C@H]1CC=CCCCC(=O)O | active
3) Cc1cnc(-c2cc(N3CCN(C(=O)CCS(C)(=O)=O)CC3)ncc2Cl)c(C)c1 | inactive
4) O=C(NCCCCN1CCOCC1)c1cc2ccccc2o1 | inactive

Q. # outcome recorded in this test, key = CN(C)c1ccccc1CN1CCCN(Cc2ccccc2N(C)C)C1c1ccncc1
A. inactive

###

test: qHTS of pediatric cancer cell lines to identify multiple opportunities for drug repurposing: Primary screen for BT-37 cells (AID 1347094); conditions: BT-37 viability, CellTiter-Glo luminescence, 48 h; series mostly up to 57.3 µM
Records with an inconclusive call do not appear. The source made the active and inactive calls. Calls follow the shape of the dose curve; as a rule, active = well fitted cell-killing curve with a large enough effect; inconclusive = small, poorly fitted or top-dose-only effect; inactive = flat fitted curve, though single readings scatter.
// classify into 1 (yes) for active, 0 (no) for inactive

As a guide, the following entries are already answered.
1) FC(F)(F)c1ccc(C=Cc2nc(COc3ccc(CCCCn4ccnn4)cc3)co2)cc1 | 1 (yes)
2) NCc1c[nH]c(=S)n1[C@H]1CCc2c(F)cc(F)cc2C1 | 1 (yes)
3) CCOc1ccccc1N=Nc1c(C)[nH]n(-c2nc(-c3ccccc3)cs2)c1=O | 0 (no)
4) CNC1[C@H](O)C(O[C@@H]2C(O)C(O[C@H]3O[C@H]([C@@H](C)NC)CC[C@H]3N)[C@@H](N)C[C@H]2N)OC[C@]1(C)O (some centres undefined) | 0 (no)
5) Cc1ccc(NC(=O)c2cccc(N(C)C)c2)cc1NC(=O)c1ccc(O)cc1 | 1 (yes)

Q. # outcome recorded in this test, key = NCC1CCC(C(=O)O)CC1 (centres undefined)
A. 0 (no)

Q. # outcome recorded in this test, key = C#CCN(C)CC1=Cc2ccccc2Oc2ccccc21
A. 0 (no)

Q. # outcome recorded in this test, key = N#Cc1c(N(CC(=O)O)CC(=O)O)sc(C(=O)O)c1CC(=O)O
A. 0 (no)

Q. # outcome recorded in this test, key = CC1=C(C(=O)Nc2cc3cn[nH]c3cc2F)C(c2ccc(C(F)(F)F)cc2)CC(=O)N1 (centres undefined)
A. 0 (no)

Q. # outcome recorded in this test, key = CCc1cccc(CC)c1NC(=O)N1Cc2[nH]nc(NC(=O)c3ccc(N4CCN(C)CC4)cc3)c2C1
A. 0 (no)

Q. # outcome recorded in this test, key = CN1CCN(c2ncc(-c3cc(Cl)cc(Cl)c3Cl)c(N)n2)CC1
A. 1 (yes)

Q. # outcome recorded in this test, key = CN(C(Cc1ccc(OS(=O)(=O)c2cccc3cnccc23)cc1)C(=O)N1CCN(c2ccccc2)CC1)S(=O)(=O)c1cccc2cnccc12 (centres undefined)
A. 0 (no)

Q. # outcome recorded in this test, key = CCn1c(-c2nonc2N)nc2cncc(CNC3CCNCC3)c21
A. 0 (no)

Q. # outcome recorded in this test, key = CC(C)(O)CC(=O)NCCn1ccc2ncnc(Nc3ccc(Oc4cccc(C(F)(F)F)c4)c(Cl)c3)c21
A. 1 (yes)

Q. # outcome recorded in this test, key = CN1CC(=O)NC1=NC(=O)Nc1cccc(Cl)c1
A. 0 (no)

Q. # outcome recorded in this test, key = CCOC(=O)N1CCN([N+]([O-])=NOc2cc(ON=[N+]([O-])N3CCN(C(=O)OCC)CC3)c([N+](=O)[O-])cc2[N+](=O)[O-])CC1
A. 0 (no)

Q. # outcome recorded in this test, key = COc1ccc(-c2oc3c(CC=C(C)C)c(O)cc(O)c3c(=O)c2O)cc1
A. 0 (no)

Q. # outcome recorded in this test, key = O=C(O)Cc1cccc(OCCCN(Cc2cccc(C(F)(F)F)c2Cl)CC(c2ccccc2)c2ccccc2)c1
A. 1 (yes)

Q. # outcome recorded in this test, key = O=C(CC12CC3CC(CC(C3)C1)C2)Nc1cccc2nc(NCCNCCO)ccc12
A. 0 (no)

###

Catalogue of max response values
assay: qHTS Assay for Identifying Gametocytocidal Compounds (AID 743244);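 further: on the % scale 0 is the no-effect control and ±100 the full control effect; actives lower the fluorescent signal which means gametocytes are killed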; details: P. falciparum 3D7 stage III-V gametocytes, alamarBlue, 72 h; stronger effect = lower value
Results filed as inconclusive are left out.
# number only, unit % dropped from output

# count of solved cases: 6
1. Cc1c(C(=O)Nc2ccc(N3C[C@@H](C)O[C@@H](C)C3)nc2)cccc1-c1ccc(OC(F)(F)F)cc1 | 0.51
2. CC(C)n1c(C=C[C@H](O)C[C@H](O)CC(=O)O)c(-c2ccc(F)cc2)c2ccccc21 | -4.13
3. CC(O)=C(C#N)C(=O)Nc1ccc(C(F)(F)F)cc1 | 27.1
4. O=C(O)c1nc(=O)[nH]c(=O)[nH]1 | 15.4
5. C[C@H]1O[C@@H](n2cc(F)c(=O)[nH]c2=O)[C@H](O)[C@H]1O | 6.51
6. Cc1csc(-c2nnc(Nc3ccc(Oc4ncccc4-c4ccnc(N)n4)cc3)c3ccccc23)c1 | 10.6

Q. Need max response, item CC(C)(CO)[C@@H](O)C(=O)NCCC(=O)O
A. -8.71

Q. Need max response, item CS(=O)(=O)c1ccc(C2=C(c3ccccc3)C(=O)OC2)cc1
A. 3.44

Q. Need max response, item CCCCc1ccc(NS(=O)(=O)c2ccc(C)c(C(=O)N3CCN(c4cccc(C)c4C)CC3)c2)cc1
A. 17

Q. Need max response, item COc1cccc(OC)c1-c1cc(C(=O)NC2(C(=O)O)C3CC4CC(C3)CC2C4)nn1-c1ccnc2cc(Cl)ccc12 (configuration not stated)
A. 42.4

###

experiment: Quantitative High-Throughput drug screen in 47 multiple myeloma cell lines against the NCATS MIPE library collection: KMS34_JCRB cell viability assay (AID 1918985); settings: KMS34 myeloma viability, CellTiter-Glo ATP luminescence, 48 h; series mostly up to 45.8 µM; further: nearly all actives have a fitted effect of over 40% in size
Records with an inconclusive call do not appear. The source made the active and inactive calls. The call rests on the fitted dose curve; in most records, active means well fitted cell-killing curve with a large enough effect; inconclusive means small, poorly fitted or top-dose-only effect, or effect the other way; inactive means no such curve, though single readings can be large or run the other way.
// classify into active, inactive

As a guide, the following entries are already answered.
1) CO[C@@H]1C(N(C)C(=O)c2ccccc2)C[C@H]2O[C@]1(C)n1c3ccccc3c3c4c(c5c6ccccc6n2c5c31)C(=O)NC4=O (some centres undefined) | active
2) CC(C)c1onc(-c2c(Cl)cccc2Cl)c1COc1ccc(C=Cc2cccc(C(=O)O)c2)c(Cl)c1 | inactive
3) NCc1c[nH]c(=S)n1[C@H]1CCc2c(F)cc(F)cc2C1 | active

Alright, here's another molecule for you.
Q. # outcome recorded in this test, key = COc1ccc2c(c1)CC[C@H]1[C@@H]2CC[C@]2(C)[C@@H](NCCCCCCN3C(=O)C=CC3=O)CC[C@H]12
A. inactive
